Reference source: the supplement of paper PMC12645437

# system: T1, CRBN, Q96SW2;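 also: pooled lentiviral library of zinc finger degron-EGFP fusions in mCherry-positive Jurkat cells, FACS-sorted after compound exposure, with degron abundance counted by next-generation sequencing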
# T1 chain: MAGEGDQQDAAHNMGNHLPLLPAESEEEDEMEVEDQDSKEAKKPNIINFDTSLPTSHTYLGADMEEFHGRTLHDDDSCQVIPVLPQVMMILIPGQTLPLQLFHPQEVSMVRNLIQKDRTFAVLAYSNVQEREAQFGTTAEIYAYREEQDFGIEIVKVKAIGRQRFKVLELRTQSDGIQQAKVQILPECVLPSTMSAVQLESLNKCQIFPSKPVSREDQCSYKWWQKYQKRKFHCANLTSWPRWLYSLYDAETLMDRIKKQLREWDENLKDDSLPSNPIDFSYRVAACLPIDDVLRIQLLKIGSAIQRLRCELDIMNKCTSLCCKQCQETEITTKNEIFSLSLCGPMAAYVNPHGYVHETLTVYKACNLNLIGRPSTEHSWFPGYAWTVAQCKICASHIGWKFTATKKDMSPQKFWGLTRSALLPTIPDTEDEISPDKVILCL
# runDescription: log2 fold change of degron read counts, EGFP-low vs EGFP+ sorted cells (limma voom), compound-induced degradation; higher = more compound-induced degradation of the degron-EGFP fusion; degrons are variants of IKZF1/3 zinc finger 2; compound dose not given here
# conditionDetails: Jurkat; 18 h; compound: compound 33 (diphenyl IMiD analogue)
The full ranking holds about 8,300 sequences; the median of “log2 fold change of degron read counts, EGFP-low vs EGFP+ sorted cells (limma voom), compound-induced degradation” is about -1.1, and the highest 2% start at about 3.2. The sample holds the highest values, similar sequences and a random draw of the others, so the mix is not that of the screen.
Exercise: for every item that follows, state its recorded log2 fold change of degron read counts.

Would you be so kind as to report log2 fold change of degron read counts for each listed record?
1. FRCPICGAQFTQKGNLLRHIKL [46F_47R_49P_50I_52G_53A_54Q_55F_67L_, Q9UKT9]
2. FSCPICGAQFTQKGNLLRHIKL [46F_47S_49P_50I_52G_53A_54Q_55F_67L_, Q9UKT9]
3. FQCPICGAKFTQKGNLLRHIKL [46F_47Q_49P_50I_52G_53A_54K_55F_67L_, Q9UKT9]
4. LECEICGFACTQKGNLLRHIKL [46L_47E_49E_50I_52G_53F_54A_55C_67L_, Q9UKT9]
5. LYCEICGFACTQKGNLLRHIKL [46L_47Y_49E_50I_52G_53F_54A_55C_67L_, Q9UKT9]

1: 1.17; 2: 1.87; 3: 0.562; 4: 0.464; 5: 2.65

Would you mind listing log2 fold change of degron read counts for each of the following sequences?
1. FYCPICGAQFTQKGNLLRHIKL [46F_47Y_49P_50I_52G_53A_54Q_55F_67L_, Q9UKT9]
2. LGCEICGFACTQKGNLLRHIKL [46L_47G_49E_50I_52G_53F_54A_55C_67L_, Q9UKT9]
3. FHCNICGACFTQKGNLLRHIKL [46F_47H_49N_50I_52G_53A_54C_55F_67L_, Q9UKT9]
4. LWCEICGFACTQKGNLLRHIKL [46L_47W_49E_50I_52G_53F_54A_55C_67L_, Q9UKT9]
5. LACEICGFACTQKGNLLRHIKL [46L_47A_49E_50I_52G_53F_54A_55C_67L_, Q9UKT9]
6. FQCNICGAKFTQKGNLLRHIKL [46F_47Q_49N_50I_52G_53A_54K_55F_67L_, Q9UKT9]
7. FICPICGAQFTQKGNLLRHIKL [46F_47I_49P_50I_52G_53A_54Q_55F_67L_, Q9UKT9]

1: 2.65; 2: -0.784; 3: 0.659; 4: 2.31; 5: 0.347; 6: -0.442; 7: 2.84
